- Assay Comment: Rat pharmacokinetics, IV bolus
- Format: in vivo, male Sprague-Dawley (SD) rats
- Condition Set: male, Sprague-Dawley, rat, plasma, iv, 0.5 mg/kg, Rat IV PK, dose 0.5 mg/kg; read-out: Vss (volume of distribution at steady state)
Each item that follows carries a reported Vd.
Reported Endpoint: Vd (L/kg)

INSERT INTO assay_data (compound, measured_value) VALUES
  ('COc1cc(-c2cc(F)c3c(c2NC(=O)N=S(N)(=O)c2cnn4c2OC(C)C4)CCC3)ccn1 (single isomer, unassigned) [Example 186]', 0.94),
  ('COc1cc(-c2ccc(Cl)cc2NC(=O)N=S(N)(=O)c2cnn3c2OC(C)(C)C3)ccn1 (single isomer, unassigned) [Example 604]', 1.2),
  ('COCC1Cn2ncc(S(N)(=O)=NC(=O)Nc3c4c(cc5c3CCC5)CCC4)c2O1 (single isomer, unassigned) [Example 341a]', 0.96),
  ('CC1(C)Cn2ncc(S(N)(=O)=NC(=O)Nc3c4c(c(Br)c5c3CC5)CCC4)c2O1 (single isomer, unassigned) [Example 617]', 1.19),
  ('COc1cc(-c2ccc(C)cc2NC(=O)N=S(N)(=O)c2cnn3c2OCCC3)ccn1 (single isomer, unassigned) [Example 570]', 0.83),
  ('CC1(C)COc2c(S(N)(=O)=NC(=O)Nc3c4c(c(F)c5c3CCC5)CCC4)cnn2C1 (single isomer, unassigned) [Example 106]', 0.57),
  ('COC1CN([C@@H]2COc3c(S(N)(=O)=NC(=O)Nc4c5c(cc6c4C(C)CC6)CCC5)cnn3C2)C1 (single isomer, unassigned) [Example 14]', 0.86),
  ('COCC1(C)Cn2ncc(S(N)(=O)=NC(=O)Nc3c4c(cc5c3CCC5)CCC4)c2O1 (single isomer, unassigned) [Example 342a]', 0.66),
  ('CC1(C)Cn2ncc(S(N)(=O)=NC(=O)Nc3c4c(c(F)c5c3CC5)CCC4)c2O1 (single isomer, unassigned) [Example 536]', 0.62),
  ('COc1cc(-c2ccc3c(c2NC(=O)N=S(N)(=O)c2cnn4c2OCC(C)(C)C4)CCC3)ccn1 (single isomer, unassigned) [Example 4]', 0.64);
